Target: human IL-23R (Homo sapiens, UniProt Q5VWK5)
Sequence (Q5VWK5 22-629): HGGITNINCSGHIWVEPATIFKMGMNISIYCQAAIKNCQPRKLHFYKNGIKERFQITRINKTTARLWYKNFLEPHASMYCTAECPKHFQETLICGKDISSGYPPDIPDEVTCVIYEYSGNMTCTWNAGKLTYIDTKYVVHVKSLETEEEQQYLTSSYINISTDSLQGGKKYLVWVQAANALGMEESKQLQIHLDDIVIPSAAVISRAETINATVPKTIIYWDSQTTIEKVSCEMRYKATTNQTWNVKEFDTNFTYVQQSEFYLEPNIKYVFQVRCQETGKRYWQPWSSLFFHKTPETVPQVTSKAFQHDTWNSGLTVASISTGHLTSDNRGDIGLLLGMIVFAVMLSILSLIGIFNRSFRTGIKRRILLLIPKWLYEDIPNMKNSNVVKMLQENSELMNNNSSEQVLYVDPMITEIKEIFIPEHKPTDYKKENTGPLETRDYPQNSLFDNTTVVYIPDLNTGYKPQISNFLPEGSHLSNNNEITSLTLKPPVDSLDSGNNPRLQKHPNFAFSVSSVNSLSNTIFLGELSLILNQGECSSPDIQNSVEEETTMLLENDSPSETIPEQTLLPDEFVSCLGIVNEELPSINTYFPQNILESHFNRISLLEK
Test: biochemical
*1 amine or outer side, *2 acyl side, *3 side chain or, on linkers, in order; H or OH if unused. Where a SMILES comes first, the peptide text is derived from it. Bridges are numbered along the chain shown (N, C = ends). [ ]: non-standard residue; d: D form. 2Nal = N[C@@H](Cc1ccc2ccccc2c1)C(=O)O; AEF = NCCOc1ccc(C[C@H](N)C(=O)O)cc1; X1 = O=C(Cc1ccc(CN[*:1])cc1)[*:2]; 3Pal = N[C@@H](Cc1cccnc1)C(=O)O; αMeL = CC(C)C[C@](C)(N)C(=O)O; Orn = NCCC[C@H](N)C(=O)O; Dab = NCC[C@H](N)C(=O)O
// reported % displacement (hIL-23R binding) for each item listed
Express the result in % but write the number alone.

Query: Sample CNC(=O)[C@H](Cc1cccnc1)NC(=O)[C@H](CCN)NC(=O)[C@@H]1CCC(=O)NCc2ccc(cc2)CC(=O)N[C@@H](CO)C(=O)N[C@H]2CCC(=O)NCC[C@H](NC(=O)[C@H](CCCN)NC(=O)[C@H](Cc3c[nH]c4ccccc34)NC2=O)C(=O)N[C@@H](Cc2ccc(OCCN)cc2)C(=O)N[C@@H](Cc2ccc3ccccc3c2)C(=O)N[C@@](C)(CC(C)C)C(=O)N1 [Compound 28] ([X1]SEW[Orn][Dab][AEF][2Nal][αMeL]E[Dab][3Pal]-NHMe; lactam 3-6, N-10) — what was its % displacement (hIL-23R binding)?
Reply: 97

Query: Sample CNC(=O)[C@H](Cc1cccnc1)NC(=O)[C@H](CCN)NC(=O)[C@@H]1CCC(=O)NCc2ccc(cc2)CC(=O)N[C@@H](CO)C(=O)N[C@H]2CCC(=O)NCC[C@H](NC(=O)[C@H](CCCCNC(C)=O)NC(=O)[C@H](Cc3c[nH]c4ccccc34)NC2=O)C(=O)N[C@@H](Cc2ccc(OCCN)cc2)C(=O)N[C@@H](Cc2ccc3ccccc3c2)C(=O)N[C@@](C)(CC(C)C)C(=O)N1 [Compound 24] ([X1]SEWK(Ac)[Dab][AEF][2Nal][αMeL]E[Dab][3Pal]-NHMe; lactam 3-6, N-10) — what was its % displacement (hIL-23R binding)?
Reply: 97

Query: Sample CNC(=O)[C@H](Cc1cccnc1)NC(=O)[C@H](Cc1c[nH]cn1)NC(=O)[C@@H]1CCC(=O)NCc2ccc(cc2)CC(=O)N[C@@H](CO)C(=O)N[C@H]2CCC(=O)NCC[C@H](NC(=O)[C@H](CCC(N)=O)NC(=O)[C@H](Cc3c[nH]c4ccccc34)NC2=O)C(=O)N[C@@H](Cc2ccc(OCCN)cc2)C(=O)N[C@@H](Cc2ccc3ccccc3c2)C(=O)N[C@@](C)(CC(C)C)C(=O)N1 [Compound 34] ([X1]SEWQ[Dab][AEF][2Nal][αMeL]EH[3Pal]-NHMe; lactam 3-6, N-10) — what was its % displacement (hIL-23R binding)?
Reply: 90

Query: Sample CNC(=O)[C@H](Cc1cccnc1)NC(=O)[C@H](CCO)NC(=O)[C@@H]1CCC(=O)NCc2ccc(cc2)CC(=O)N[C@@H](CO)C(=O)N[C@H]2CCC(=O)NCC[C@H](NC(=O)[C@H](CCC(N)=O)NC(=O)[C@H](Cc3c[nH]c4ccccc34)NC2=O)C(=O)N[C@@H](Cc2ccc(OCCN)cc2)C(=O)N[C@@H](Cc2ccc3ccccc3c2)C(=O)N[C@@](C)(CC(C)C)C(=O)N1 [Compound 36] — what was its % displacement (hIL-23R binding)?
Reply: 94

Query: Sample CNC(=O)CC[C@@H]1NC(=O)[C@H](Cc2c[nH]c3ccccc23)NC(=O)[C@@H]2CCC(=O)NCC[C@H](NC1=O)C(=O)N[C@@H](Cc1ccc(OCCN)cc1)C(=O)N[C@@H](Cc1ccc3ccccc3c1)C(=O)N[C@@](C)(CC(C)C)C(=O)N[C@H](C(=O)N[C@@H](CCN)C(=O)N[C@@H](Cc1cccnc1)C(=O)NC)CCC(=O)NCc1ccc(cc1)CC(=O)N[C@@H](CO)C(=O)N2 [Compound 29] ([X1]SEWE(NHMe)[Dab][AEF][2Nal][αMeL]E[Dab][3Pal]-NHMe; lactam 3-6, N-10) — what was its % displacement (hIL-23R binding)?
Reply: 96

Query: Sample CNC(=O)[C@H](Cc1cccnc1)NC(=O)[C@H](CCN)NC(=O)[C@@H]1CCC(=O)NCc2ccc(cc2)CC(=O)N[C@@H](CO)C(=O)N[C@H]2CCC(=O)NCC[C@H](NC(=O)[C@H](CCC(=O)N(C)C)NC(=O)[C@H](Cc3c[nH]c4ccccc34)NC2=O)C(=O)N[C@@H](Cc2ccc(OCCN)cc2)C(=O)N[C@@H](Cc2ccc3ccccc3c2)C(=O)N[C@@](C)(CC(C)C)C(=O)N1 [Compound 30] ([X1]SEWE(NMe2)[Dab][AEF][2Nal][αMeL]E[Dab][3Pal]-NHMe; lactam 3-6, N-10) — what was its % displacement (hIL-23R binding)?
Reply: 104

Query: Sample CNC(=O)[C@H](Cc1cccnc1)NC(=O)[C@H](CCN)NC(=O)[C@@H]1CCC(=O)NCc2ccc(cc2)CC(=O)N[C@@H](C)C(=O)N[C@H]2CCC(=O)NCC[C@H](NC(=O)[C@H](CCC(N)=O)NC(=O)[C@H](Cc3c[nH]c4ccccc34)NC2=O)C(=O)N[C@@H](Cc2c[nH]c3ncccc23)C(=O)N[C@@H](Cc2ccc3ccccc3c2)C(=O)NC(C)(C)C(=O)N1 [Compound 43] — what was its % displacement (hIL-23R binding)?
Reply: 101

Query: Sample CNC(=O)[C@H](Cc1cccnc1)NC(=O)[C@H](CO)NC(=O)[C@@H]1CCC(=O)NCc2ccc(cc2)CC(=O)N[C@@H](C)C(=O)N[C@H]2CCC(=O)NCC[C@H](NC(=O)[C@H](CCC(N)=O)NC(=O)[C@H](Cc3c[nH]c4ccccc34)NC2=O)C(=O)N[C@@H](Cc2ccc(OCCN)cc2)C(=O)N[C@@H](Cc2ccc3ccccc3c2)C(=O)N[C@@](C)(CC(C)C)C(=O)N1 [Compound 40] ([X1]AEWQ[Dab][AEF][2Nal][αMeL]ES[3Pal]-NHMe; lactam 3-6, N-10) — what was its % displacement (hIL-23R binding)?
Reply: 100

Query: Sample CC(C)C[C@]1(C)NC(=O)[C@H](Cc2ccc3ccccc3c2)NC(=O)[C@H](Cc2ccc(OCCN)cc2)NC(=O)[C@@H]2CCNC(=O)CC[C@H](NC(=O)[C@H](CO)NC(=O)Cc3ccc(cc3)CNC(=O)CC[C@@H](C(=O)N[C@@H](CCN)C(=O)NCCCCc3cccnc3)NC1=O)C(=O)N[C@@H](Cc1c[nH]c3ccccc13)C(=O)N[C@@H](CCC(N)=O)C(=O)N2 [Compound 6] — what was its % displacement (hIL-23R binding)?
Reply: 103
